For each of the molecules below, state its pIC50.
Test system: MX-1 (human breast carcinoma) cells
Assay: in vitro growth inhibition, Promega CellTiter Blue Cell Viability Assay
Assay type: cell-based
Details: MX1, MX-1 cells, 72 h exposure, CellTiter Blue fluorescence 544 ex/620 em, read-out: IC50
Units for pIC50: none; it is -log10 of a concentration expressed in mol/L.

Task: Request - read-out pIC50 | tested on MX-1 (human breast carcinoma) cells | molecule COc1ccc(/C=C/C(=O)/C=C/C(=O)Nc2ccccc2)cc1OC
Output: 6.05

Task: Request - read-out pIC50 | tested on MX-1 (human breast carcinoma) cells | molecule O=C(/C=C/c1cccc(C(F)(F)F)c1)CC1CCC=CC1=O (centres unmarked)
Output: 5.59

Task: Request - read-out pIC50 | tested on MX-1 (human breast carcinoma) cells | molecule CCOC(=O)/C=C/C(=O)/C=C/c1ccccc1
Output: 5.66

Task: Request - read-out pIC50 | tested on MX-1 (human breast carcinoma) cells | molecule CO/N=C(\C=C\c1ccc(OC)c(OC)c1)CC1CCC=C/C1=N\OC (centres unmarked)
Output: 3.89

Task: Request - read-out pIC50 | tested on MX-1 (human breast carcinoma) cells | molecule CCOC(=O)c1cc(/C=C/c2ccccc2)no1
Output: 3.27

Task: Request - read-out pIC50 | tested on MX-1 (human breast carcinoma) cells | molecule CC(C)=CC(=O)CC1CCC=CC1=O (centres unmarked)
Output: 5.98

Task: Request - read-out pIC50 | tested on MX-1 (human breast carcinoma) cells | molecule CC(C)=C/C=C/C(=O)CCC(=O)/C=C/C=C(C)C
Output: 4.79

###

Tested on: MX-1 (human breast carcinoma) cells
Assay: in vitro growth inhibition, Promega CellTiter Blue Cell Viability Assay
Type: cell-based
Details: MX1, MX-1 cells, 72 h exposure, CellTiter Blue fluorescence 544 ex/620 em, read-out: IC50
For each of the compounds below, state its pIC50.
Units for pIC50: none; it is -log10 of a concentration expressed in mol/L.

Task: Request - read-out pIC50 | tested on MX-1 (human breast carcinoma) cells | compound CON=C(/C=C/C(=O)N1CCN(C)CC1)/C=C/c1ccc(OC)c(OC)c1 [Compound 46]
Output: 3.32

Task: Request - read-out pIC50 | tested on MX-1 (human breast carcinoma) cells | compound CCOC(=O)CCC(=O)/C=C/c1ccccc1 [Compound 27]
Output: 4.11

Task: Request - read-out pIC50 | tested on MX-1 (human breast carcinoma) cells | compound COc1ccc(/C=C/C(/C=C/C(=O)N2CCN(C)CC2)=NO)cc1OC [Compound 45]
Output: 3.43

Task: Request - read-out pIC50 | tested on MX-1 (human breast carcinoma) cells | compound O=C(/C=C/C(=O)Nc1ccccc1)/C=C/c1ccccc1 [Compound 33]
Output: 5.49

Task: Request - read-out pIC50 | tested on MX-1 (human breast carcinoma) cells | compound COc1ccc(/C=C/C(/C=C/C(=O)N2CCN(C)CC2)=NOc2ccccc2)cc1OC [Compound 47]
Output: 5.06

Task: Request - read-out pIC50 | tested on MX-1 (human breast carcinoma) cells | compound COc1cc(/C=C/C(=O)/C=C/C(=O)N2CCN(C)CC2)cc(OC)c1OC [Compound 39]
Output: 6.10

Task: Request - read-out pIC50 | tested on MX-1 (human breast carcinoma) cells | compound COc1ccc(/C=C/C(=O)CCC(=O)/C=C/c2ccc(OC)c(OC)c2)cc1OC [Compound 17]
Output: 4.14

Task: Request - read-out pIC50 | tested on MX-1 (human breast carcinoma) cells | compound COC(=O)/C=C/C(=O)Nc1ccc(F)cc1 [Compound 41]
Output: 3.92

Task: Request - read-out pIC50 | tested on MX-1 (human breast carcinoma) cells | compound CCCN(C)C(=O)/C=C/C(/C=C/c1ccccc1)=N\OC [Compound 43]
Output: 3.77

Task: Request - read-out pIC50 | tested on MX-1 (human breast carcinoma) cells | compound COc1ccc(/C=C/C(=O)/C=C/C(=O)N2CCN(C)CC2)cc1OC [Compound 36]
Output: 6.77

Task: Request - read-out pIC50 | tested on MX-1 (human breast carcinoma) cells | compound CCCN(C)C(=O)/C=C/C(=O)/C=C/c1ccccc1 [Compound 32]
Output: 6.41

Task: Request - read-out pIC50 | tested on MX-1 (human breast carcinoma) cells | compound COc1cc(/C=C/C(=O)/C=C/C(=O)N2CCN(c3ccncc3)CC2)cc(OC)c1OC [Compound 40]
Output: 6.32

Task: Request - read-out pIC50 | tested on MX-1 (human breast carcinoma) cells | compound O=C(/C=C/c1ccc(O)cc1)CC1CCC=CC1=O (stereo not shown) [Compound 25]
Output: 6.80

Task: Request - read-out pIC50 | tested on MX-1 (human breast carcinoma) cells | compound CCCN(C)C(=O)c1cc(/C=C/c2ccccc2)no1 [Compound 52]
Output: 3.71

Task: Request - read-out pIC50 | tested on MX-1 (human breast carcinoma) cells | compound CCCN(C)C(=O)/C=C/C(=O)/C=C/c1ccc(OC)c(OC)c1 [Compound 34]
Output: 6.55

Task: Request - read-out pIC50 | tested on MX-1 (human breast carcinoma) cells | compound C/C=C/C(=O)C(C)CC(=O)/C=C/c1ccccc1 (stereo not shown) [Compound 22]
Output: 5.68

Task: Request - read-out pIC50 | tested on MX-1 (human breast carcinoma) cells | compound COc1ccc(/C=C/C(/C=C/C(=O)N2CCN(C)CC2)=NOCc2ccccc2)cc1OC [Compound 48]
Output: 4.63

Cited source for all entries: patent US7799954B2
